tested on: BT-20; details: MTT, BT-20, 72 h
MEASURED_ATTRIBUTE: IC50 (µM)
Answers are plain numbers, in µM.

Inquiry: Retrieve IC50 on BT-20; query `Cc1ccc2[nH]cc(CCNC(=O)CCc3cn(-c4ccccc4)nc3-c3ccc4c(c3)OCO4)c2c1`
Reply text: 15

* * *

tested on: Wnt pathway (Wnt3a-stimulated) in BT-20 cells; assay: TOPFlash reporter assay, Wnt3a activation; format: cell-based; conditions: average efficacy; BT-20 TOPFlash, Wnt3a 250 ng/ml
Use 80% as the dividing line for Efficacy (%), with the line itself on the T side and lower values as F.

| SAMPLE_SMILES | CLASS_ASSIGNMENT |
| --- | --- |
| O=C(Nc1ccccc1)N1CCC(n2nc(-c3ccccc3)cc2-c2ccccc2)CC1 | F |
| O=C(CCc1cn(-c2ccccc2)nc1-c1ccc2c(c1)OCO2)NCCc1ccccc1 | T |
| O=C(CCc1cn(-c2ccccc2)nc1-c1ccc2c(c1)OCO2)NCCc1ccco1 | T |
| O=C(CCc1cn(-c2ccccc2)nc1-c1ccc2c(c1)OCO2)NCCc1cccs1 | F |
| Cc1ccc2[nH]cc(CCNC(=O)CCc3cn(-c4ccccc4)nc3-c3ccc4c(c3)OCO4)c2c1 | T |

Please turn your attention to the following entry.
Inquiry: I'd appreciate it if you could say whether `Cc1ccccc1Cn1cc(-c2ccncc2)cc1C(=O)N1CCN(c2ccccc2)CC1` has Efficacy (%) at least equal to 80%.
Reply text: T
